Tested on: OVCAR-3 ovarian
measurement-notes: NCI tumour cell line growth inhibition, 48 h
metric: TGI

Checklist item: TGI tested on OVCAR-3 ovarian, entry COc1cc2c(c3oc4c(O)cccc4c(=O)c13)CC(C(C)(O)CO)O2 (configuration not stated) , value?
> 100 µM

Provide the documented TGI with OVCAR-3 ovarian as the system for C=C1C(=O)O[C@@H]2C(=O)[C@@H](C)CCC/C(C)=C/CC[C@@]3(C)O[C@@H]3C[C@@H]12
> 100 µM

What measured TGI is associated with c1ccc(-c2nc(-c3ccccc3SSc3ccccc3-c3nc(-c4ccccc4)nn3-c3ccccc3)n(-c3ccccc3)n2)cc1 on OVCAR-3 ovarian?
> 100 µM

Query TGI on OVCAR-3 ovarian for CCOC(=O)c1csc(NC(=O)CN2CCOCC2)n1
> 100 µM

Report TGI for CCCCC#C[I+]c1ccccc1 tested on OVCAR-3 ovarian.
30.7 µM

# query: TGI | item C=CC1(C)CCC2C(=CCC3C2(C)CC(O)C(O)C3(C)COC2OC(C(=O)O)C(O)C(O)C2O)C1 (configuration not stated) (tested in a mixture with another compound) | system: OVCAR-3 ovarian
> 100 µM

Give the reported TGI for O=c1[nH]c(Nc2cccc(CC(F)(F)F)c2)nc2nc[nH]c12 (system: OVCAR-3 ovarian).
> 100 µM

====

System: DLD-1 colon
measurement-notes: NCI tumour cell line growth inhibition, 48 h
metric: TGI

In the examples that follow, each entry is paired with its recorded TGI.
{"molecule": "Cc1nc2c(ccc3ncccc32)[nH]1", "TGI": "> 100 µM"}
{"molecule": "COc1cc2ccnc([C@@H](OC(=O)c3ccccc3)c3ccc(OC)c(OC)c3OC)c2cc1OC", "TGI": "80.2 µM"}
{"molecule": "CCCC1C(=O)CCc2c(OC)ccc(OC)c21 (centres undefined)", "TGI": "> 100 µM"}

So what does the record say about TGI for CCn1c(C)nn2c(=O)c3ccccc3nc2c1=O ?
> 100 µM

====

Tested on: OVCAR-8 ovarian
measurement-notes: NCI tumour cell line growth inhibition, 48 h
metric: TGI

{"compound": "COc1ccc(N/N=C2\\CCOc3ccc(C)cc3C2=O)cc1", "TGI": "> 100 µM"}
{"compound": "Cc1ccc(Cl)c2c(N=Nc3ccccc3[N+](=O)[O-])c(O)[nH]c12", "TGI": "> 100 µM"}
{"compound": "CCC[CH2][Sn]([CH2]CCC)([S]c1cccc2cccnc12)[S]c1cccc2cccnc12", "TGI": "1.16 µM"}
{"compound": "CC[C@@H]1CC[C@@H]2[C@H](CC[C@]3(C)[C@@H](OC(C)=O)CC[C@@H]23)[C@H]1COC(C)=O", "TGI": "82 µM"}
{"compound": "C=CCN1C[C@H](C)N([C@H](c2ccc(C(=O)NC(CC)CC)cc2)c2cccc(OC)c2)C[C@H]1C", "TGI": "> 100 µM"}

I would be grateful if you could share the reported TGI for COc1cnc2c(c1)C(=O)c1c-2n(CCCN2CCOCC2)c(=O)c2cc(F)ccc12 .
> 100 µM

I have this compound here, Fc1ccc(NC(=S)SCc2ccc3c(c2)OCO3)cc1F , and I need its recorded TGI.
35.9 µM

I have this compound here, C1=C2/CC[C@H](Sc3ccccc3)C2C2(CCCCC/1)OCCO2 (stereo partly specified) , and I need its recorded TGI.
> 100 µM

Which value of TGI has been reported for Cc1ccc(NC(=O)Nc2ccc(-c3cccnc3)cc2N2CCC(CO)CC2)cc1 in the records?
> 100 µM

I am curious: what TGI value has been reported for N#Cc1c(-c2ccccc2)/c(=C\Nc2cccc(C(F)(F)F)c2)c(=O)n2c1nc1ccccc12 ?
51.5 µM

What does the data say about its TGI? Entry: COc1cc(/C=N\NC(=O)CN2CCN(c3cc4c(cc3F)c(=O)c(C(=O)N/N=C/c3cc(OC)c(OC)c(OC)c3)cn4C3CC3)CC2)cc(OC)c1OC
> 88.5 µM

Query: TGI; subject: CCCCCCc1cc2cc(-c3csc(CC#N)n3)c(=O)oc2cc1O
> 100 µM

====

Catalogue of compounds with associated TGI
Tested on: MDA-MB-435
measurement-notes: NCI tumour cell line growth inhibition, 48 h

Some compounds with recorded TGI:
{"compound": "CC(=O)O[C@@H]1[C@H](C(C)C)[C@@H](OC(C)=O)C/C(C)=C/CC[C@]2(C)O[C@@H]12", "TGI": "> 100 µM"}
{"compound": "CC1(C)OC(=O)N(c2ccccc2)C12C=Cc1cc([N+](=O)[O-])cc([N+](=O)[O-])c1O2 (stereo unspecified)", "TGI": "> 100 µM"}
{"compound": "CN(C)C(=O)O/N=C1/C(c2c(O)[nH]c3ccccc23)=Nc2ccccc21", "TGI": "> 100 µM"}
{"compound": "Cn1cc(C2=C(c3c4n(c5ccccc35)CCCCC4)C(=O)NC2=O)c2ccccc21", "TGI": "3.01 µM"}
{"compound": "O=C(Nc1ccc(F)cc1)Nc1ccc(Cl)c([N+](=O)[O-])c1", "TGI": "11.6 µM"}

# next compound below
# returns recorded TGI (system: MDA-MB-435) for CC(C)(C)OC(=O)N[C@H]1CCN(C2CCCCC2)C1=O
> 100 µM

====

Tested on: ACHN renal
measurement-notes: NCI tumour cell line growth inhibition, 48 h
metric: GI50

These recorded examples may help you get a feel for the data.
{"compound": "O=C1NC(=NCCc2cccc(F)c2)S/C1=C\\c1ccc2ncccc2c1", "system-under-test": "ACHN renal", "result": "10.2 µM"}
{"compound": "Cc1ccc(NC(=O)Nc2ccc(-c3cccnc3)cc2N2CCC(CO)CC2)cc1", "system-under-test": "ACHN renal", "result": "6.68 µM"}
{"compound": "CCC[CH2][Sn]([CH2]CCC)([S]c1cccc2cccnc12)[S]c1cccc2cccnc12", "system-under-test": "ACHN renal", "result": "0.193 µM"}

Now look at this one.
Query (compound): COC1/C=C/OC2(C)Oc3c(C)c(O)c4c(O)c(c(/C=N/Nc5ccc([N+](=O)[O-])cc5[N+](=O)[O-])c(O)c4c3C2=O)NC(=O)C(C)=C/C=C/C(C)C(O)C(C)C(O)C(C)C(OC(C)=O)C1C (centres undefined) ; field requested: GI50
3.56 µM

====

Tested on: KM20L2 colon
measurement-notes: NCI tumour cell line growth inhibition, 48 h
TGI values by entry

Below: 4 compounds and their reported TGI.
{"compound": "Cc1c(C(=O)CC(=O)C(=O)Nc2ccccc2C(F)(F)F)[n+](=O)c2ccccc2n1[O-]", "metric": "TGI", "result": "92.3 µM"}
{"compound": "COC(=O)C1(C(C)C)CCc2c(OC)ccc(OC)c2C1=O (stereo not drawn)", "metric": "TGI", "result": "> 100 µM"}
{"compound": "O=C(O)CCC(NC(=O)c1ccc(Nc2nc3ccccc3nc2-c2cccs2)cc1)C(=O)O (stereo not drawn)", "metric": "TGI", "result": "> 100 µM"}
{"compound": "Cc1c(O)c(O)cc[n+]1C1OC(CO)C(O)C1O (stereo not drawn)", "metric": "TGI", "result": "> 100 µM"}

Given the entry O=C(O)CCNCCCNCCC(=O)O , what TGI was observed with KM20L2 colon?
> 100 µM

# get_value(readout= TGI, system= KM20L2 colon) for COc1ccccc1N1C(=O)C2c3[nH]c4ccccc4c3C3CCC(C(C)(C)C)CC3C2C1=O (stereo not drawn)
> 100 µM

Notebook: pull reported TGI for KM20L2 colon, entry COC(=O)c1ccccc1NC(=O)C(=O)Cc1nc2c3c(ccc2[nH]c1=O)C(=O)c1ccccc1C3=O
> 100 µM

API: value(readout=TGI, system=KM20L2 colon) for record COC(=O)/C(C#N)=C1\NC(=O)c2ccccc21
> 100 µM

====

compounds and their reported TGI
System: NCI-H460 lung
measurement-notes: NCI tumour cell line growth inhibition, 48 h

For orientation, consider the following solved cases.
{"compound": "CCOC(=O)CCC1(C(=O)OCC)CCCCC1=O (centres undefined)", "system-under-test": "NCI-H460 lung", "TGI": "> 100 µM"}
{"compound": "CN(C)C(=S)N=C(Nc1ccccc1)Nc1ccccc1", "system-under-test": "NCI-H460 lung", "TGI": "> 100 µM"}
{"compound": "COC(=O)C([C@H](NC1(c2ccccc2)c2ccccc2-c2ccccc21)C(=O)OC)N(NC(=O)OCc1ccccc1)C(=O)OCc1ccccc1 (mixture of isomers)", "system-under-test": "NCI-H460 lung", "TGI": "> 100 µM"}

Query the reported TGI for NCI-H460 lung; item: O=C(N/N=C(/COc1ccc(Cl)cc1)N=Cc1ccncc1)c1ccncc1
> 100 µM

So what TGI did C=C(C)C(OC)C(O)CC1(C)CC(O)CC(C)(C2CCC3OC(C4(C)CCC(Br)C(C)(C)O4)CCC3(C)O2)O1 (centres undefined) get with NCI-H460 lung?
39.3 µM

Item: CC(=O)OC1CC(OC2C(O)CC(OC3C(O)CC(OC4CCC5(C)C(CCC6C5CC(O)C5(C)C(C7=CC(=O)OC7)CCC65O)C4)OC3C)OC2C)OC(C)C1OC1OC(CO)C(O)C(O)C1O (centres undefined) Test system: NCI-H460 lung Read-out: TGI Value: ?
0.0678 µM
